Value source: patent US4207326A

The following compounds are shown together with reported MIC values.
Test system: A. fumigatus
ASSAY_EXPLANATION: Antifungal activity: Minimum Inhibitory Concentration
Format: cell-based, Aspergillus fimigatus (A. fumigatus) NCPF 2140
REPORTED_CONDITIONS: Aspergillus fumigatus, A. fumigatus, Day 2; 27° C., one week; read-out: Minimum Inhibitory Concentration
Numeric answer only, unit µg/mL assumed.

Consider the following illustrative entries.
{"SMI": "CCCCCCCCCCCC[n+]1c(C)cc(C)n1Cc1ccc(Cl)cc1.[Br-]", "READING_UNIT": "µg/mL", "MIC": 5}
{"SMI": "CCCCCCCCCCCCCCn1ccc[n+]1C", "READING_UNIT": "µg/mL", "MIC": 50}

Short answer for "CCCCCCCCCCCC[n+]1c(C)cc(C)n1Cc1ccc(Cl)cc1Cl.[Br-]" : MIC was 5

In plain terms, "CCCCCCCCCCCCn1ccc[n+]1C" has a documented MIC of 10

// MIC lookup, compound = "CCCCCCCCCCCCCCCCn1ccc[n+]1C" , result: 10
